Target: T1, human GREM1 (hGREM1-His; SEQ ID NO: 595) (human, UniProt O60565 25-184)
T1 construct: also called biotin-hGREM1-His; recombinant human GREM1 protein
T1 sequence: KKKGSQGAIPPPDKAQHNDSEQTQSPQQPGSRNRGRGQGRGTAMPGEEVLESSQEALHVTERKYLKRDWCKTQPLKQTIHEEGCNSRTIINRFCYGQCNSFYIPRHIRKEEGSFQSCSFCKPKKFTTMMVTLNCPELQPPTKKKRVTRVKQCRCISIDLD
Test: SPR, Biacore T200, 25 C, mAb captured, hGREM1-His injected;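 note: Heparin-supplemented HBS-EP+ used as running buffer, association and dissociation phases followed, Kd computed as koff divided by kon and half-life derived from koff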
readout-name: koff (s⁻¹)
Your answer is read as s⁻¹, so omit the unit and give the number.

Sample H4H6252P (antibody, human IgG4, V domains shown, H4H prefix = human IgG4 Fc; also called H4H6252S) VH: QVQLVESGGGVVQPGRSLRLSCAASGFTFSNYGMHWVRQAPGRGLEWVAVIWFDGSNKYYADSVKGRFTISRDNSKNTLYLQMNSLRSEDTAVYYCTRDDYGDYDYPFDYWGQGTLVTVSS VL: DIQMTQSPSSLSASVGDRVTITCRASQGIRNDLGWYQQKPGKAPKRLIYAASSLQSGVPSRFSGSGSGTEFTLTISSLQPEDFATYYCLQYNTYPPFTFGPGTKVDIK ; koff observed: 7.58e-05

Sample H2bM2782N (antibody, mouse IgG2, V domains shown, H2M prefix = mouse IgG2 Fc (here H2bM); also called H2M2782N) VH: EVQLVESGGGLVQPGGSLRLSCAASGFTFSSYSMNWVRQAPGKGLEWVSSISSSSNYINYADSIKGRFTISRDNAKNSLYLQMNSLRAEDTAVYYCARVNWDYPFDCWGRGTLVTVSS VL: DIQMTQSPSSLSASVGDRVTITCRASQDIRHYLVWYQQKPGKVPKLLIYAASTLQSGVPSRFSGSGSGTDFILTISSLQPEDVATYYCQKYNSAPFTFGPGTKVDIK ; koff observed: 0.00189

Sample H4H6251P (antibody, human IgG4, V domains shown, H4H prefix = human IgG4 Fc) VH: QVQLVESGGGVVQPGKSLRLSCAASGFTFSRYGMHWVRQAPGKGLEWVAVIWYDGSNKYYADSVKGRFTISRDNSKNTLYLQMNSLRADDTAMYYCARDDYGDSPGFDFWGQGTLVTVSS VL: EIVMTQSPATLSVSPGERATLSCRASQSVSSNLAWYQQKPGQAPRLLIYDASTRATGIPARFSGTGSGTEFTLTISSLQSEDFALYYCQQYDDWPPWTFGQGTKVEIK ; koff observed: 0.000652
